Each recorded value in this set is attributed to the Immune Epitope Database (IEDB).

- subject_of_test: HLA-A*31:01
- assay_comment: IEDB peptide-MHC binding, purified MHC/competitive/radioactivity; filed as Kd, often an IC50 or EC50 that approximates it; bounds were set here for any values at or beyond the usual limits of such assays
- stated_conditions: source organism: Vaccinia virus WR
pKd: −log10 of the molar value.
Outcome: TRUE for pKd of at least 5; FALSE for anything lower.

>>> class_label("EQQQSFMPK")
"TRUE"
>>> class_label("TIAGGVCYY")
"FALSE"
>>> class_label("MTLVPVLEK")
"TRUE"
>>> class_label("HIASKINNNR")
"TRUE"

----------
- subject_of_test: HLA-A*11:01
- assay_comment: IEDB peptide-MHC binding, purified MHC/direct/fluorescence; filed as Kd, often an IC50 or EC50 that approximates it; bounds were set here for any values at or beyond the usual limits of such assays
- stated_conditions: source organism: Vibrio parahaemolyticus
property_measured: Kd

>>> readout_value("DMRKRIEAF")
"≥ 20 µM"

----------
- subject_of_test: HLA-B*57:01
- assay_comment: IEDB peptide-MHC binding, purified MHC/direct/fluorescence; filed as Kd, often an IC50 or EC50 that approximates it; bounds were set here for any values at or beyond the usual limits of such assays
- stated_conditions: source organism: Yersinia pestis
pKd: −log10 of the molar value.
property_measured: pKd

>>> readout_value("QLKSRAAVL")
"≤ 4.70"

----------
We begin with a simple list: items and their reported pKd.
- subject_of_test: HLA-A*33:01
- assay_comment: IEDB peptide-MHC binding, purified MHC/competitive/radioactivity; filed as Kd, often an IC50 or EC50 that approximates it; bounds were set here for any values at or beyond the usual limits of such assays
- stated_conditions: source organism: Vaccinia virus WR
pKd: −log10 of the molar value.
property_measured: pKd

>>> readout_value("KFTILEYLY")
5.04
>>> readout_value("KLNGAMVEY")
5.71
>>> readout_value("NMRDLIVTFR")
9.25
>>> readout_value("TQFNFNGHTY")
4.79
>>> readout_value("DFDNLIGVR")
7.06
>>> readout_value("KFGKNHIHR")
5.27
>>> readout_value("EALEYLSELK")
5.25
>>> readout_value("DAKNDDWKK")
5.55

----------
- subject_of_test: HLA-A*31:01
- assay_comment: IEDB peptide-MHC binding, purified MHC/competitive/fluorescence; filed as Kd, often an IC50 or EC50 that approximates it; bounds were set here for any values at or beyond the usual limits of such assays
- stated_conditions: source organism: Vaccinia virus Copenhagen
pKd: −log10 of the molar value.
property_measured: pKd

>>> readout_value("SLYKYLLLR")
8.93

----------
- subject_of_test: HLA-B*27:03
- assay_comment: IEDB peptide-MHC binding, purified MHC/competitive/fluorescence; filed as Kd, often an IC50 or EC50 that approximates it; bounds were set here for any values at or beyond the usual limits of such assays
- stated_conditions: source organism: Orthohantavirus seoulense
pKd: −log10 of the molar value.
property_measured: pKd

>>> readout_value("KPKHLYVSM")
"≤ 4.70"

----------
- subject_of_test: HLA-A*69:01
- assay_comment: IEDB peptide-MHC binding, purified MHC/direct/fluorescence; filed as Kd, often an IC50 or EC50 that approximates it; bounds were set here for any values at or beyond the usual limits of such assays
- stated_conditions: source organism: Giardia intestinalis
property_measured: Kd

>>> readout_value("GPRRAAWRI")
"≥ 20 µM"
